tested on: myeloid leukemia patient primary cells Pat.5; experiment: cell viability (% survival relative to DMSO control); higher = less cytotoxic; settings: 1 nM; 72 h
Reported cell viability values are given for each entry in this list.
Note: unit % is implicit; provide only the numeric part.

Worked examples follow.
CCC(=O)N1CCN(c2ccc(-n3c(=O)ccc4cnc5ccc(-c6cnc7ccccc7c6)cc5c43)cc2C(F)(F)F)CC1	54.5
Oc1ccc(Nc2nc(-c3ccc(Cl)cc3)cs2)cc1	34.3
C[C@H](NC(=O)c1sccc1OCc1ccc(Cl)cc1)c1ccccc1	88.1

Field: next compound
State the recorded cell viability for this entry: Nc1nc(Cl)nc2c1ncn2[C@H]1C[C@H](O)[C@@H](CO)O1
50.7
